# System: A-375
# measurement-notes: Cytotoxicity against human A375 cells after 72 hrs by MTT assay
# Type: functional, cell-based
# experimental-parameters: A-375, 72 h
pIC50: −log10 of the molar value.
Each entry below carries its recorded pIC50.
endpoint: pIC50

input-smiles	endpoint	censoring-operator	number
COc1ccc2cc(-c3ccc4c(c3)OCO4)n(CC=O)c(=O)c2c1OC	pIC50	=	5.42
C=CCOc1nc(-c2ccc3c(c2)OCO3)cc2ccc(OC)c(OC)c12	pIC50	<	5.00
CCCS(=O)(=O)Nc1ccc(F)c(C(=O)c2c[nH]c3ncc(-c4ccc(Cl)cc4)cc23)c1F	pIC50	=	6.74
C=CCn1c(-c2ccc3c(c2)OCO3)cc2ccc(OC)c(OC)c2c1=O	pIC50	=	6.70
C=CCn1c(-c2cc3c(cc2C=C)OCO3)cc2ccc(OC)c(OC)c2c1=O	pIC50	=	6.77
COc1ccc2cc3n(c(=O)c2c1OC)CC=Cc1cc2c(cc1-3)OCO2	pIC50	=	6.23
C=Cc1cc2c(cc1-c1cc3ccc(OC)c(OC)c3c(=O)[nH]1)OCO2	pIC50	=	6.37
CNC(=O)c1cc(Oc2ccc(NC(=O)Nc3ccc(Cl)c(C(F)(F)F)c3)cc2)ccn1	pIC50	=	5.12
COc1ccc2cc(-c3ccc4c(c3)OCO4)n(CCC=O)c(=O)c2c1OC	pIC50	=	5.53
C=CCn1c(-c2ccc(OC)c(OC)c2)cc2ccc(OC)c(OC)c2c1=O	pIC50	=	6.30
COc1ccc(-c2cc3ccc(OC)c(OC)c3c(=O)[nH]2)cc1OC	pIC50	<	5.00
COc1cc2c(cc1OC)-c1cc3ccc(OC)c(OC)c3c(=O)n1CC=C2	pIC50	=	5.68
CO/C=C/Cn1c(-c2ccc3c(c2)OCO3)cc2ccc(OC)c(OC)c2c1=O	pIC50	=	6.96

----------
Each entry below carries its recorded pIC50.
# System: A-375
# measurement-notes: Cytotoxicity against human A375 cells after 72 hrs by MTT assay
# Format: functional, cell-based
# experimental-parameters: A-375, 72 h
pIC50: −log10 of the molar value.

molecule	censoring-operator	pIC50
COc1ccc(-c2cc3ccc(OC)c(OC)c3c(=O)n2CCC=O)cc1OC	=	5.24
COc1ccc2cc(-c3ccc4c(c3)OCO4)[nH]c(=O)c2c1OC	=	5.10
COc1ccc2cc(-c3ccc4c(c3)OCO4)n(CC(O)CO)c(=O)c2c1OC (racemic)	<	5.00
C=CCOc1nc(-c2ccc(OC)c(OC)c2)cc2ccc(OC)c(OC)c12	<	5.00
COc1ccc2cc3n(c(=O)c2c1OC)CC(O)C(O)c1cc2c(cc1-3)OCO2 (stereo not given)	=	5.05
